Biological target: T1, rat GIP receptor (rat) (UniProt P43219)
T1 sequence (looked up): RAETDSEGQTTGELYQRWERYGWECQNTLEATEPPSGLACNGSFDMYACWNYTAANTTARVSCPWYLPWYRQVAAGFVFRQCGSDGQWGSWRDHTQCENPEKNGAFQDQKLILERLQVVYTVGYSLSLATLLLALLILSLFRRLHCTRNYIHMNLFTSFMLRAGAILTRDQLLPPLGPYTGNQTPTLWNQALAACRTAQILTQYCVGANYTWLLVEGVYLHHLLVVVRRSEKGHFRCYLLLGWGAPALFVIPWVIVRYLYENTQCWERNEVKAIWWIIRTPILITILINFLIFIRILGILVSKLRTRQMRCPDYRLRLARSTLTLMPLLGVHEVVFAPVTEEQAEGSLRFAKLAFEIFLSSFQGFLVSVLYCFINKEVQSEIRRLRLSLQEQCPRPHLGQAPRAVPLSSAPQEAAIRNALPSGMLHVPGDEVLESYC
Assay: cell-based or functional assay
endpoint: cAMP EC50 (nM)

IP381 (Fc fusion) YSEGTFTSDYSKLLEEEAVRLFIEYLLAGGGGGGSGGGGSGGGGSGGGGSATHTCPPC    0.045

[P] IP275 (Fc fusion) YSEGTFTSDYSKLLEKEAQRLFIEWLLKGPGGGGGSGGGGSGGGGSGGGGSATHTCPPC
[Q] IP351 (Fc fusion) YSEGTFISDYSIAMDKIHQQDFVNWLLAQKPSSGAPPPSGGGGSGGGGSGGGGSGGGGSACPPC
[R] IP226 (Fc fusion) YSEGTFTSDVSKLLERQAIDEFIAWLLKGGAAAGGSGSTASSGSGSATGGGGAATHTCPPCPAPEF
Incoming: Order by cAMP EC50, ascending. Respond with the label ranking, as requested.
Outgoing: Q, P, R
(Q: 0.0063 nM, P: 0.014 nM, R: 0.27 nM)

[A] IP367 (Fc fusion) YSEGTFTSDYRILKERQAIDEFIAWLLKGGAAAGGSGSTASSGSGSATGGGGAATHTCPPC
[B] IP402 (Fc fusion) YSEGTFISDYSIAMDKIHQQDFVNWLLAQKGSGGGGSGGGGSGGGGSGGGGSGGGGSGGGGSGGGGSACPPC
Incoming: Input pair: A , B . Output: entry with lower cAMP EC50. Please indicate the selected item by its label.
Outgoing: B
